Data provenance is ChEMBL document CHEMBL4706486.

- Organism: Homo sapiens
- assayProcedure: Inhibition of acetyl-PHF6 amide self-aggregation (unknown origin) in pH 7.4 phosphate buffer at 10 uM and 25 degreeC measured every 1 min for 120 mins under shaking condition by ThT fluorescence assay relative to control
Activity calls are given as the source filed them. The calls are words filed in the database; no cut-off is given here.
measuredProperty: inhibition

Below: 5 compounds and their reported inhibition.
chemSmiles | inhibition
CC(=O)c1c(O)c(C)c(O)c2c1OC1=CC(=O)/C(=C(/C)Nc3cc(Cl)ccc3O)C(=O)[C@@]12C | 22%
CC(=O)c1c(O)c(C)c(O)c2c1OC1=Cc3c(c(C)nn3-c3ccc(S(N)(=O)=O)cc3)C(=O)[C@@]12C | 46.8%
CC(=O)c1c(O)c(C)c(O)c2c1OC1=Cc3c(c(C)nn3-c3cccnc3)C(=O)[C@@]12C | 29.8%
CC(=O)c1c(O)c(C)c(O)c2c1OC1=Cc3c(c(C)nn3-c3n[nH]c(=O)c4ccccc34)C(=O)[C@@]12C | 9.3%
CC(=O)c1c(O)c(C)c(O)c2c1OC1=CC(=O)/C(=C(/C)Nc3cc(C(C)C)c(O)cc3C)C(=O)[C@@]12C | inactive

Exercise: Returns the measured inhibition for the input compound. Input: CC(=O)c1c(O)c(C)c(O)c2c1OC1=CC(=O)/C(=C(/C)Nc3ccc4c(ccn4C)c3)C(=O)[C@@]12C
Solution: 27.6%

Exercise: Okay, and COc1cccc(-n2nc(C)c3c2C=C2Oc4c(C(C)=O)c(O)c(C)c(O)c4[C@@]2(C)C3=O)c1 ?
Solution: 24%

Exercise: Okay, and CC(=O)c1c(O)c(C)c(O)c2c1OC1=CC(=O)/C(=C(/C)Nc3c(C)cc(O)cc3C)C(=O)[C@@]12C ?
Solution: inactive

----------
- Organism: Homo sapiens
- assayProcedure: Inhibition of acetyl-PHF6 amide self-aggregation (unknown origin) in pH 7.4 phosphate buffer at 10 uM and 25 degreeC measured every 1 min for 120 mins under shaking condition by ThT fluorescence assay relative to control
The source made the active and inactive calls. No cut-off for these calls is given here.
measuredProperty: inhibition

Below: 5 compounds and their reported inhibition.
chemSmiles | inhibition
CC(=O)c1c(O)c(C)c(O)c2c1OC1=CC(=O)/C(=C(/C)Nc3ccc(C)cc3O)C(=O)[C@@]12C | 25.3%
CC(=O)c1c(O)c(C)c(O)c2c1OC1=Cc3c(c(C)nn3-c3ccc(C(C)(C)C)cc3)C(=O)[C@@]12C | 22.3%
CC(=O)c1c(O)c(C)c(O)c2c1OC1=CC(=O)/C(=C(/C)Nc3cc(C(C)(C)C)c(O)c(C(C)(C)C)c3)C(=O)[C@@]12C | inactive
CC(=O)c1c(O)c(C)c(O)c2c1OC1=Cc3c(c(C)nn3S(=O)(=O)c3ccc(C)cc3)C(=O)[C@@]12C | inactive
CC(=O)c1c(O)c(C)c(O)c2c1OC1=Cc3c(c(C)nn3-c3ccc(C)nn3)C(=O)[C@@]12C | 40.9%

Exercise: Returns the measured inhibition for the input compound. Input: CC(=O)c1c(O)c(C)c(O)c2c1OC1=CC(=O)/C(=C(/C)Nc3ncccc3O)C(=O)[C@@]12C
Solution: 48%

Exercise: Okay, and CC(=O)c1c(O)c(C)c(O)c2c1OC1=CC(=O)/C(=C(/C)NCCCCCO)C(=O)[C@@]12C ?
Solution: inactive

Exercise: Okay, and CC(=O)c1c(O)c(C)c(O)c2c1OC1=Cc3c(c(C)nn3-c3ccc(F)cc3)C(=O)[C@@]12C ?
Solution: 26.9%

----------
- Species: Homo sapiens
- assayProcedure: Inhibition of acetyl-PHF6 amide self-aggregation (unknown origin) in pH 7.4 phosphate buffer at 10 uM and 25 degreeC measured every 1 min for 120 mins under shaking condition by ThT fluorescence assay relative to control
Each item that follows carries a reported inhibition.

Below: 5 compounds and their reported inhibition.
chemSmiles | measuredProperty | testResult
CC(=O)c1c(O)c(C)c(O)c2c1OC1=CC(=O)/C(=C(/C)Nc3ccc(N4CCN(C)CC4)cc3)C(=O)[C@@]12C | inhibition | 48.2%
CC(=O)c1c(O)c(C)c(O)c2c1OC1=Cc3[nH]nc(C)c3C(=O)[C@@]12C | inhibition | 22.5%
CC(=O)c1c(O)c(C)c(O)c2c1OC1=CC(=O)/C(=C(/C)Nc3cnc(N)cn3)C(=O)[C@@]12C | inhibition | 44.2%
CC(=O)c1c(O)c(C)c(O)c2c1OC1=CC(=O)/C(=C(/C)Nc3ccc4scnc4c3)C(=O)[C@@]12C | inhibition | 29.8%
CC(=O)c1c(O)c(C)c(O)c2c1OC1=Cc3c(c(C)nn3-c3cnccn3)C(=O)[C@@]12C | inhibition | 38%

Exercise: Returns the measured inhibition for the input compound. Input: CC(=O)c1c(O)c(C)c(O)c2c1OC1=CC(=O)/C(=C(/C)Nc3ccc(O)cn3)C(=O)[C@@]12C
Solution: 58.3%

Exercise: Okay, and CC(=O)c1c(O)c(C)c(O)c2c1OC1=CC(=O)/C(=C(/C)N[C@@H](Cc3c[nH]c4ccccc34)C(=O)O)C(=O)[C@@]12C ?
Solution: 47.6%

Exercise: Okay, and CC(=O)c1c(O)c(C)c(O)c2c1OC1=CC(=O)/C(=C(/C)Nc3cccc(N(C)C)c3)C(=O)[C@@]12C ?
Solution: 11.3%

----------
Each item that follows carries a reported inhibition.
- Organism: Homo sapiens
- assayProcedure: Inhibition of acetyl-PHF6 amide self-aggregation (unknown origin) in pH 7.4 phosphate buffer at 10 uM and 25 degreeC measured every 1 min for 120 mins under shaking condition by ThT fluorescence assay relative to control

Below: 2 compounds and their reported inhibition.
chemSmiles | inhibition
CC(=O)c1c(O)c(C)c(O)c2c1OC1=Cc3c(c(C)nn3-c3ccc(C#N)cc3)C(=O)[C@@]12C | 20.1%
COc1ccc(-n2nc(C)c3c2C=C2Oc4c(C(C)=O)c(O)c(C)c(O)c4[C@@]2(C)C3=O)cn1 | 7.7%

With those in mind, consider the next compound.
Exercise: Returns the measured inhibition for the input compound. Input: CC(=O)c1c(O)c(C)c(O)c2c1OC1=Cc3c(c(C)nn3-c3cccc(C(=O)O)c3)C(=O)[C@@]12C
Solution: 40.4%
